molecular target: Histone-lysine N-methyltransferase EHMT2 (Homo sapiens); experiment: qHTS Assay for Inhibitors of Histone Lysine Methyltransferase G9a; conditions: G9a H3K9 monomethylation, AlphaScreen, 2 h; series mostly up to 59 µM; also: nearly all actives have a fitted effect of over 75% in size; also: potency is read from the fitted curve at half-maximal effect
Screen size: about 350,000 compounds; about 31,000 (8.9%) were called active. Roughly 15% stayed inconclusive and do not appear here. This excerpt belongs to a sample that is enriched for actives.
property_label: Potency

The following molecules have reported results that may help.
molecule | Potency
Cc1nnc(NCc2ccccc2)c2c1nnn2Cc1ccc(F)cc1 | inactive
COc1ccccc1OCCNc1cc(N2CCOCC2)ccc1[N+](=O)[O-] | 39.8 µM (active)
COc1ccccc1OCCNC(=O)c1cc([N+](=O)[O-])cc([N+](=O)[O-])c1 | inactive
COc1cc(C(=O)Nc2cc(C(F)(F)F)ccc2-n2cncn2)cc(OC)c1OC | inactive

Answer for every listed entry: what is its Potency? The entries follow.
1. c1nnc2c3c4c(sc3ncn12)CCC4
2. CC(=O)Nc1ccc(S(=O)(=O)N2CCN(c3ccccc3)CC2)cc1
3. COc1ccc2c(c1)C=C(C(=O)NCc1cc(Br)ccc1OC)CO2
4. CCCOC(=O)c1ccc(N2C(=O)c3ccccc3C2=O)cc1
5. CCOc1ccc(NC(=O)C(CC(C)C)N2Cc3ccccc3C2=O)cc1 (stereo unspecified)

Result block:
["inactive", "inactive", "inactive", "inactive", "inactive"]

// input: 5 molecules below; output: Potency for each
1. Cc1cccc(N2CCN(C(=O)c3oc(=O)c4ccccc4c3-c3ccccc3)CC2)c1C
2. O=S(=O)(NCCS(=O)(=O)N1CCN(c2ccccc2)CC1)c1ccc(F)cc1
3. Cc1cccc(C)c1NC(=O)CSc1ccc([N+](=O)[O-])cn1
4. Cc1cccc(OCCNC(=O)CSc2ccc(C(F)(F)F)cc2[N+](=O)[O-])c1
5. O=C(CSc1ncc(-c2ccccc2)[nH]1)Nc1ccc(F)cc1F

Result block:
1: inactive; 2: inactive; 3: inactive; 4: inactive; 5: inactive

I'm hoping you can list Potency for every molecule here, please.
1. CC(C)CNC(=S)NNC(=O)c1nn(C)cc1Cl
2. O=C(Nc1cn(-c2ccccc2)nc1-c1ccccc1)c1ccccc1
3. CCCCN(CCCC)CCCNC(=O)CN1C(=O)COc2ccc(S(=O)(=O)N3CCC(C)CC3)cc21
4. O=C(NNC(=S)NC(=O)c1cn(-c2ccccc2)nc1-c1ccccc1)c1ccncc1
5. Cc1cccc(NC(=S)Nc2ccc(Cl)c(Cl)c2)c1
6. O=C(C[n+]1cc(-c2ccc(Cl)c(Cl)c2)n2c1CCC2)c1cccs1

Result block:
1: inactive; 2: inactive; 3: inactive; 4: 25.1 µM (active); 5: inactive; 6: inactive
